system: HBV; assay: anti-HBV activity, HepG2.2.15 stable transfected cell line, HBV DNA from secreted virions by realtime PCR; type: cell-based; details: Hepatitis B virus, 144 h, HepG2.2.15 cells, 6 days of treatment
measurement_label: log10 EC50 (log10 of the value in nM)

INSERT INTO results (smiles_repr, measurement_label, reading) VALUES
  ('Cn1cc(S(=O)(=O)NC2(C(F)(F)F)CC2)c(Cl)c1C(=O)Nc1ccnc(Cl)c1', 'log10 EC50', 1.70),
  ('C[C@@H](NS(=O)(=O)c1cn(C)c(C(=O)Nc2ccnc(Cl)c2F)c1Cl)C(F)(F)F', 'log10 EC50', 0.90),
  ('C[C@@H](NS(=O)(=O)c1cn(C)c(C(=O)Nc2cnc(F)c(Br)c2)c1Cl)C(F)(F)F', 'log10 EC50', 1.70),
  ('C[C@@H](NS(=O)(=O)c1cn(C)c(C(=O)Nc2ccnc(Cl)c2)c1F)C(F)(F)F', 'log10 EC50', 1.48),
  ('C[C@@H](NS(=O)(=O)c1cn(C)c(C(=O)Nc2ccc(F)cn2)c1F)C(F)(F)F', 'log10 EC50', 2.56),
  ('C[C@H](NS(=O)(=O)c1cn(C)c(C(=O)Nc2ccnc(C#N)c2)c1F)C(F)(F)F', 'log10 EC50', 2.20),
  ('Cn1cc(S(=O)(=O)NC2(C(F)(F)F)CC2)c(Cl)c1C(=O)Nc1ccnc(C#N)c1', 'log10 EC50', 1.95),
  ('Cn1cc(S(=O)(=O)NC2(C)CC(F)(F)C2)c(F)c1C(=O)Nc1ccnc(Cl)c1F', 'log10 EC50', 1.00),
  ('C[C@@H](NS(=O)(=O)c1cn(C)c(C(=O)Nc2ccnc(C#N)c2)c1Cl)C(C)(F)F', 'log10 EC50', 1.60),
  ('Cc1c(S(=O)(=O)N[C@H](C)C(F)(F)F)c(F)c(C(=O)Nc2ccnc(Cl)c2)n1C', 'log10 EC50', 2.04),
  ('CC[C@H](NS(=O)(=O)c1cc(C(=O)Nc2ccnc(Cl)c2)n(C)c1)C(F)(F)F', 'log10 EC50', 1.78),
  ('C[C@@H](NS(=O)(=O)c1cn(C)c(C(=O)Nc2ccnc(F)c2)c1F)C(C)(F)F', 'log10 EC50', 1.60),
  ('Cn1cc(S(=O)(=O)NC2(C)CC(F)(F)C2)c(Cl)c1C(=O)Nc1ccnc(C#N)c1', 'log10 EC50', 1.30);

====

system: HBV; experiment: anti-HBV activity, HepG2.2.15 stable transfected cell line, HBV DNA from secreted virions by realtime PCR; type: cell-based; details: Hepatitis B virus, 144 h, HepG2.2.15 cells, 6 days of treatment
Please assign Not met whenever EC50 is at or above 40 nM, and Met whenever it is below.

INSERT INTO measurements (smiles_repr, answer_label) VALUES
  ('Cc1cc(NC(=O)c2c(Cl)c(S(=O)(=O)N[C@H](C)C(F)(F)F)cn2C)cc(C(F)F)n1', 'Not met'),
  ('Cc1cc(NC(=O)c2c(Cl)c(S(=O)(=O)N[C@H](C)C(F)(F)F)cn2C)ccn1', 'Not met'),
  ('Cn1cc(S(=O)(=O)NC2(C)COC2)cc1C(=O)Nc1cncc(C(F)(F)F)c1', 'Not met'),
  ('C[C@@H](NS(=O)(=O)c1cn(C)c(C(=O)Nc2ccnc(Cl)c2)c1F)C(C)(F)F', 'Met'),
  ('Cc1c(S(=O)(=O)N[C@H](C)C(F)(F)F)c(Cl)c(C(=O)Nc2ccnc(C#N)c2)n1C', 'Met'),
  ('C[C@@H](NS(=O)(=O)c1cn(C)c(C(=O)Nc2ccnc(C#N)c2)c1F)C(C)(F)F', 'Met'),
  ('C[C@@H](NS(=O)(=O)c1cn(C)c(C(=O)Nc2ccnc(C(F)(F)F)c2)c1Cl)C(F)(F)F', 'Not met'),
  ('Cn1cc(S(=O)(=O)NC2(C)COC2)cc1C(=O)Nc1cccc(C(F)(F)F)n1', 'Not met'),
  ('C[C@@H](NS(=O)(=O)c1cn(C)c(C(=O)Nc2ccncc2)c1Cl)C(F)(F)F', 'Not met'),
  ('C[C@@H](NS(=O)(=O)c1cn(C)c(C(=O)Nc2ccnc(Br)c2)c1F)C(F)(F)F', 'Met'),
  ('C[C@@H](NS(=O)(=O)c1cn(C)c(C(=O)Nc2ccnc(C#N)c2)c1Cl)C(F)(F)F', 'Met'),
  ('CC[C@H](NS(=O)(=O)c1cn(C)c(C(=O)Nc2ccnc(C#N)c2)c1Cl)C(F)(F)F', 'Not met'),
  ('C[C@@H](NS(=O)(=O)c1cn(C)c(C(=O)Nc2ccnc(F)c2)c1Cl)C(C)(F)F', 'Not met'),
  ('C[C@@H](NS(=O)(=O)c1cn(C)c(C(=O)Nc2ccnc(C(F)F)c2)c1Cl)C(F)(F)F', 'Met'),
  ('Cn1cc(S(=O)(=O)NC2(C(F)(F)F)CC2)cc1C(=O)Nc1ccnc(C#N)c1', 'Not met'),
  ('C[C@@H](NS(=O)(=O)c1cn(C)c(C(=O)Nc2ccnc(C(C)(F)F)c2)c1F)C(F)(F)F', 'Not met'),
  ('C[C@@H](NS(=O)(=O)c1cn(C)c(C(=O)Nc2ccnc(Cl)c2)c1Cl)C(F)(F)F', 'Met'),
  ('Cn1cc(S(=O)(=O)NC2(C(F)(F)F)CCC2)c(Cl)c1C(=O)Nc1ccnc(Cl)c1', 'Met'),
  ('CC(C)NS(=O)(=O)c1cn(C)c(C(=O)Nc2ccnc(C(F)F)c2)c1F', 'Not met');

====

system: HBV; assay: anti-HBV activity, HepG2.2.15 stable transfected cell line, HBV DNA from secreted virions by realtime PCR; type: cell-based; conditions: Hepatitis B virus, 144 h, HepG2.2.15 cells, 6 days of treatment
Catalogue of EC50 values
measurement_label: EC50

INSERT INTO results (smiles_repr, system_name, measurement_label, reading) VALUES
  ('Cc1nc(NC(=O)c2c(Cl)c(S(=O)(=O)N[C@H](C)C(F)(F)F)cn2C)ccc1F', 'HBV', 'EC50', '90 nM'),
  ('Cc1cc(NC(=O)c2c(Cl)c(S(=O)(=O)N[C@H](C)C(F)(F)F)cn2C)cc(F)n1', 'HBV', 'EC50', '< 100 nM'),
  ('Cc1c(S(=O)(=O)N[C@H](C)C(F)(F)F)c(F)c(C(=O)Nc2cc(F)nc(F)c2)n1C', 'HBV', 'EC50', '< 100 nM'),
  ('C[C@@H](NS(=O)(=O)c1cn(C)c(C(=O)Nc2cc(F)nc(F)c2)c1Cl)C(C)(F)F', 'HBV', 'EC50', '< 100 nM'),
  ('C[C@@H](NS(=O)(=O)c1cn(C)c(C(=O)Nc2cc(F)nc(F)c2)c1F)C(C)(F)F', 'HBV', 'EC50', '< 100 nM'),
  ('C[C@@H](NS(=O)(=O)c1cn(C)c(C(=O)Nc2ccnc(Br)c2F)c1F)C(C)(F)F', 'HBV', 'EC50', '< 100 nM');

====

system: HBV; assay: anti-HBV activity, HepG2.2.15 stable transfected cell line, HBV DNA from secreted virions by realtime PCR; format: cell-based; details: Hepatitis B virus, 144 h, HepG2.2.15 cells, 6 days of treatment
measurement_label: EC50

INSERT INTO results (smiles_repr, system_name, measurement_label, reading) VALUES
  ('C[C@@H](NS(=O)(=O)c1cn(C)c(C(=O)Nc2cc(F)nc(F)c2)c1F)C(F)(F)F', 'HBV', 'EC50', '< 100 nM'),
  ('Cc1cc(NC(=O)c2c(F)c(S(=O)(=O)N[C@H](C)C(F)(F)F)cn2C)cc(F)n1', 'HBV', 'EC50', '< 100 nM'),
  ('C[C@@H](NS(=O)(=O)c1cn(C)c(C(=O)Nc2ccnc(Br)c2)c1F)C(C)(F)F', 'HBV', 'EC50', '< 100 nM');

====

tested on: HBV; assay: anti-HBV activity, HepG2.2.15 stable transfected cell line, HBV DNA from secreted virions by realtime PCR; type: cell-based; conditions: Hepatitis B virus, 144 h, HepG2.2.15 cells, 6 days of treatment
pEC50: −log10 of the molar value.
Catalogue of pEC50 values
measurement_label: pEC50

INSERT INTO results (molecule, system_name, value_prefix, reading) VALUES
  ('C[C@@H](NS(=O)(=O)c1cn(C)c(C(=O)Nc2ccnc(C(F)(F)F)c2)c1F)C(F)(F)F [Compound 21]', 'HBV', '=', 7.40),
  ('CC[C@@H](NS(=O)(=O)c1cn(C)c(C(=O)Nc2ccnc(C#N)c2)c1Cl)C(F)(F)F [Compound 38]', 'HBV', '=', 7.40),
  ('C[C@@H](NS(=O)(=O)c1cn(C)c(C(=O)Nc2ccnc(Cl)c2F)c1F)C(C)(F)F [Compound 125]', 'HBV', '>', 7.00),
  ('C[C@@H](NS(=O)(=O)c1cn(C)c(C(=O)Nc2ccnc(F)c2)c1F)C(F)(F)F [Compound 24]', 'HBV', '=', 7.40);
